Reference source: patent US20260242458A1

Can you tell me kon for the items I'm about to list?
Molecular target: T1, recombinant human IL-25 protein (human, UniProt Q9H293 33-177)
T1 construct: Bought (Acro, catalog no: IL5-H4221) for ELISA; also called hIL-25; IL-17E
T1 sequence: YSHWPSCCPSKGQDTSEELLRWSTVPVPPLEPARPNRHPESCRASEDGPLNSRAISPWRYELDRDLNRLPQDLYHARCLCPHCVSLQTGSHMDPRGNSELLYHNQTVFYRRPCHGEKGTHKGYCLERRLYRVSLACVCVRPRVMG
Test: BLI, Fab; species of IL-25 not stated, taken as human
Write down the numeric answer in M⁻¹ s⁻¹ and omit the unit.

So, IL25Ab3 Fab (Fab, V domains shown, VH/VL assigned as for IL25Ab3; also called murine parental Fab) VH: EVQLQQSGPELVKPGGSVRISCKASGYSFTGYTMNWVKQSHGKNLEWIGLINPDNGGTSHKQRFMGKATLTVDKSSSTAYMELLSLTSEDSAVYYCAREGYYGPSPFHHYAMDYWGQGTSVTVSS VL: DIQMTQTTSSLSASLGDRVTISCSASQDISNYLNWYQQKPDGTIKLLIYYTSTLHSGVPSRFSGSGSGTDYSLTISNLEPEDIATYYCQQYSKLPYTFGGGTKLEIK ? Its kon was 150000

So, IL25Ab6 Fab (Fab, V domains shown) VH: QVQLVQSGAEVKKPGASVKVSCKASGYSFTGYTMNWVRQAPGQGLEWMGLINPDNGGTSYKQKFQGRVTMTVDKSISTAYMELSRLRSDDTAVYYCAREGYYGPSPFHHYAMDYWGQGTLVTVSS VL: DIQMTQSPSSLSASVGDRVTITCQASQDISNYLNWYQQKPGKAPKLLIYYTSTLHTGVPSRFSGSGSGTDYTFTISSLQPEDIATYYCQQYSKLPYTFGQGTKLEIK ? Its kon was 134000

So, IL25Ab8 Fab (Fab, V domains shown, VH/VL assigned as for IL25Ab8) VH: QVQLVQSGAEVKKPGASVKVSCKASGYSFTGYTMNWVRQAHGKNLEWMGLINPDNGGTSHKQKFQGRVTMTVDKSISTAYMELSRLRSDDTAVYYCAREGYYGPSPFHHYAMDYWGQGTLVTVSS VL: DIQMTQSPSSLSASVGDRVTITCQASQDISNYLNWYQQKPDGTIKLLIYYTSTLHTGVPSRFSGSGSGTDYTLTISSLQPEDIATYYCQQYSKLPYTFGGGTKLEIK ? Its kon was 141000
